Give Ratio IC50 for every item shown.
Species: Oryctolagus cuniculus
Test: Selectivity for IC50 of new Zealand white […] bone resorption over IC50 rabbit cathepsin K
Format: functional
Format: numeric value only, no unit, no commentary.

Give Ratio IC50 for N#CCNC(=O)C1CC(F)(F)CCC1c1cnccc1-c1ccc(SCF)cc1 (racemic)
29

Give Ratio IC50 for CSc1ccc(-c2c(C3CCC(F)(F)CC3C(=O)NCC#N)nnn2Cc2ccccc2)cc1 (racemic)
4

Give Ratio IC50 for CSc1ccc(-c2cn(C)nc2C2CCC(F)(F)CC2C(=O)NCC#N)cc1 (racemic)
103

Give Ratio IC50 for CSc1ccc(-c2ncccc2C2CCC(F)(F)CC2C(=O)NCC#N)cc1 (racemic)
10

Give Ratio IC50 for CSc1ccc(-c2c[nH]c(=O)cc2C2CCC(F)(F)CC2C(=O)NCC#N)cc1 (racemic)
4

Give Ratio IC50 for CSc1ccc(-c2ccccc2C2CCC(F)(F)CC2C(=O)NCC#N)cc1 (racemic; form 2)
76

* * *

Test system Cathepsin K (Homo sapiens, UniProt P43235), pIC50 listed for each of the molecules.
The value called pIC50 is obtained by taking minus log10 of the concentration in mol/L.

Give pIC50 for CSc1ccc(-c2c[nH]c(=O)cc2C2CCC(F)(F)CC2C(=O)NCC#N)cc1 (racemic)
8.40

Give pIC50 for N#CCNC(=O)C1CC(F)(F)CCC1c1cnccc1-c1ccc(SCF)cc1 (racemic)
8.70

Give pIC50 for CSc1ccc(-c2cn(C)nc2C2CCC(F)(F)CC2C(=O)NCC#N)cc1 (racemic)
9.40

Give pIC50 for CSc1ccc(-c2c[n+]([O-])ccc2C2CCC(F)(F)CC2C(=O)NCC#N)cc1 (racemic)
8.30

Give pIC50 for CSc1ccc(-c2ccccc2C2CCC(F)(F)CC2C(=O)NCC#N)cc1 (racemic; form 1)
9.52

* * *

Experiment: Half life in rat at 10 mg/kg, po or 5 mg/kg, iv
Format: ADME, organism-based
Conditions: in vivo
measuredMetric: half-life (h)
Write the value in h as a bare number.

Give half-life for CSc1ccc(-c2cn(C)nc2C2CCC(F)(F)CC2C(=O)NCC#N)cc1 (racemic)
4.6

* * *

Species: Oryctolagus cuniculus
Experiment: Inhibition of bone resorption in New Zealand white rabbit by crosslaps ELISA assay
Type: functional, organism-based
Conditions: Oryctolagus cuniculus
Mark each entry class 1 if its IC50 sits below 40 nM, and class 0 for all others.

In plain terms, does CSc1ccc(-c2c[nH]c(=O)cc2C2CCC(F)(F)CC2C(=O)NCC#N)cc1 (racemic) come in under 40 nM for IC50?
class 1

In plain terms, does CSc1ccc(-c2c(C3CCC(F)(F)CC3C(=O)NCC#N)cc[nH]c2=O)cc1 (racemic) come in under 40 nM for IC50?
class 0

In plain terms, does CSc1ccc(-c2c[n+]([O-])ccc2C2CCC(F)(F)CC2C(=O)NCC#N)cc1 (racemic) come in under 40 nM for IC50?
class 0

In plain terms, does CSc1ccc(-c2c(C3CCC(F)(F)CC3C(=O)NCC#N)nnn2Cc2ccccc2)cc1 (racemic) come in under 40 nM for IC50?
class 1

In plain terms, does CSc1ccc(-c2cnccc2C2CCC(F)(F)CC2C(=O)NCC#N)cc1 (racemic) come in under 40 nM for IC50?
class 1

In plain terms, does N#CCNC(=O)C1CC(F)(F)CCC1c1cnccc1-c1ccc(SCF)cc1 (racemic) come in under 40 nM for IC50?
class 0

In plain terms, does CSc1ccc(-c2ncccc2C2CCC(F)(F)CC2C(=O)NCC#N)cc1 (racemic) come in under 40 nM for IC50?
class 1

In plain terms, does CSc1ccc(-c2nc(C)sc2C2CCC(F)(F)CC2C(=O)NCC#N)cc1 (racemic) come in under 40 nM for IC50?
class 1
